For each record, write down the corresponding pEC50.
biological target: CFTR ΔF508 mutant (Homo sapiens, UniProt P13569, DEL508-508); construct: expressed in transfected cells; host or cells: CFBE41o- (adenoviral transduction); assay: YFP-halide influx assay for the CFTR-ΔF508 mutation (384 well, FDSS/μCell); type: cell-based; conditions: CFBE41o- cells, CFTR-ΔF508, 1×D-PBS, fluorescence after 36 seconds
Sequence (P13569 with tags, fused parts or gaps DEL508-508): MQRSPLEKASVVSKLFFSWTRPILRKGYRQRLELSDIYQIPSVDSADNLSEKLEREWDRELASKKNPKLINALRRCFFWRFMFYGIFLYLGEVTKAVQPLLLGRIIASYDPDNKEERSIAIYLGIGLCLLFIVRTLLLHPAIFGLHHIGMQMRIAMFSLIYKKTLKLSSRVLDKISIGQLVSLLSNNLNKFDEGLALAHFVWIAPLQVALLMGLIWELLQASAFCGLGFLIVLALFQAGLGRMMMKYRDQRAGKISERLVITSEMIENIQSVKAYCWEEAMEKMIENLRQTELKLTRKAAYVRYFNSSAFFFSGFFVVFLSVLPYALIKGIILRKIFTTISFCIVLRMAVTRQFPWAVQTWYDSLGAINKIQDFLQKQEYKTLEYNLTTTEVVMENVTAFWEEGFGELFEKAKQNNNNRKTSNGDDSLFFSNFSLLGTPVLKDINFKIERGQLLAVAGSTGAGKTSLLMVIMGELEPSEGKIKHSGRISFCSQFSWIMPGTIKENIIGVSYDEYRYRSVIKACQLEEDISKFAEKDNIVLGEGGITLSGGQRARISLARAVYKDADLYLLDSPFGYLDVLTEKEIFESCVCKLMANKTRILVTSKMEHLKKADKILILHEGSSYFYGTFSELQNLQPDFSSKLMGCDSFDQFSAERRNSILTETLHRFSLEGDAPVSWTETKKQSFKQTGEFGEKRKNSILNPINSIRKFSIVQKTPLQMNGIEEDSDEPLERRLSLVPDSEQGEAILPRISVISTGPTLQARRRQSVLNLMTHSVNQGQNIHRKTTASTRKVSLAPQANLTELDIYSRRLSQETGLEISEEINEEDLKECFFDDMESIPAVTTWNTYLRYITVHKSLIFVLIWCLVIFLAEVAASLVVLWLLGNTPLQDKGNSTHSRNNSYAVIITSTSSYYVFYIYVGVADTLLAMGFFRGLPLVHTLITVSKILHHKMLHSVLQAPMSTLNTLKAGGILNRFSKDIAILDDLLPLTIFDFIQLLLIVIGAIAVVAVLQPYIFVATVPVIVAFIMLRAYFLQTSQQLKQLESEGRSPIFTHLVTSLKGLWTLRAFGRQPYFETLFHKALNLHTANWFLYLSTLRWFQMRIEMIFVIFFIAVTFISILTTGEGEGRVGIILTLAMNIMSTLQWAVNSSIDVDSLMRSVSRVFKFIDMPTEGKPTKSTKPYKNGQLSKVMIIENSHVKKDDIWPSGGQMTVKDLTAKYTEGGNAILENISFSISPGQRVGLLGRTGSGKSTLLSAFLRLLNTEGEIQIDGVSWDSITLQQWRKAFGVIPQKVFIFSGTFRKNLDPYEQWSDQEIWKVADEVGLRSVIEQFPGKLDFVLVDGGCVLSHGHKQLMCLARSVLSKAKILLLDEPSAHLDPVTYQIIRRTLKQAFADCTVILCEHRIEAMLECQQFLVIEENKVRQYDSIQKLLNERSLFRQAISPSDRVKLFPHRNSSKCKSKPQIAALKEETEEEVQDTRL
FYI, pEC50 means -log10 of a concentration in mol per litre.

(Q) # lookup: pEC50 of "NC(=O)c1cc(S(=O)(=O)c2ccccc2)sc1NC(=O)c1cc[nH]n1"
(A) 7.92

(Q) # lookup: pEC50 of "CC(C)(O)C(=O)Nc1sc(S(=O)(=O)c2cc(CC#N)cc(OC(F)(F)F)c2)cc1C(N)=O"
(A) 7.12

(Q) # lookup: pEC50 of "CC(C)Oc1cccc(S(=O)(=O)c2cc(C(N)=O)c(NC(=O)C(C)(C)O)s2)c1"
(A) 7.04

(Q) # lookup: pEC50 of "CC1(C)COCCN1S(=O)(=O)c1cc(C(N)=O)c(NC(=O)c2ccccc2C(F)(F)F)s1"
(A) 7.06

* * *

molecular target: CFTR-G1349D (Homo sapiens, UniProt P13569, G1349D); construct: expressed in transfected cells; assay: YFP-halide influx assay for the CFTR-G1349D; assay type: cell-based; conditions: class symbol
Sequence (P13569 whole entry G1349D): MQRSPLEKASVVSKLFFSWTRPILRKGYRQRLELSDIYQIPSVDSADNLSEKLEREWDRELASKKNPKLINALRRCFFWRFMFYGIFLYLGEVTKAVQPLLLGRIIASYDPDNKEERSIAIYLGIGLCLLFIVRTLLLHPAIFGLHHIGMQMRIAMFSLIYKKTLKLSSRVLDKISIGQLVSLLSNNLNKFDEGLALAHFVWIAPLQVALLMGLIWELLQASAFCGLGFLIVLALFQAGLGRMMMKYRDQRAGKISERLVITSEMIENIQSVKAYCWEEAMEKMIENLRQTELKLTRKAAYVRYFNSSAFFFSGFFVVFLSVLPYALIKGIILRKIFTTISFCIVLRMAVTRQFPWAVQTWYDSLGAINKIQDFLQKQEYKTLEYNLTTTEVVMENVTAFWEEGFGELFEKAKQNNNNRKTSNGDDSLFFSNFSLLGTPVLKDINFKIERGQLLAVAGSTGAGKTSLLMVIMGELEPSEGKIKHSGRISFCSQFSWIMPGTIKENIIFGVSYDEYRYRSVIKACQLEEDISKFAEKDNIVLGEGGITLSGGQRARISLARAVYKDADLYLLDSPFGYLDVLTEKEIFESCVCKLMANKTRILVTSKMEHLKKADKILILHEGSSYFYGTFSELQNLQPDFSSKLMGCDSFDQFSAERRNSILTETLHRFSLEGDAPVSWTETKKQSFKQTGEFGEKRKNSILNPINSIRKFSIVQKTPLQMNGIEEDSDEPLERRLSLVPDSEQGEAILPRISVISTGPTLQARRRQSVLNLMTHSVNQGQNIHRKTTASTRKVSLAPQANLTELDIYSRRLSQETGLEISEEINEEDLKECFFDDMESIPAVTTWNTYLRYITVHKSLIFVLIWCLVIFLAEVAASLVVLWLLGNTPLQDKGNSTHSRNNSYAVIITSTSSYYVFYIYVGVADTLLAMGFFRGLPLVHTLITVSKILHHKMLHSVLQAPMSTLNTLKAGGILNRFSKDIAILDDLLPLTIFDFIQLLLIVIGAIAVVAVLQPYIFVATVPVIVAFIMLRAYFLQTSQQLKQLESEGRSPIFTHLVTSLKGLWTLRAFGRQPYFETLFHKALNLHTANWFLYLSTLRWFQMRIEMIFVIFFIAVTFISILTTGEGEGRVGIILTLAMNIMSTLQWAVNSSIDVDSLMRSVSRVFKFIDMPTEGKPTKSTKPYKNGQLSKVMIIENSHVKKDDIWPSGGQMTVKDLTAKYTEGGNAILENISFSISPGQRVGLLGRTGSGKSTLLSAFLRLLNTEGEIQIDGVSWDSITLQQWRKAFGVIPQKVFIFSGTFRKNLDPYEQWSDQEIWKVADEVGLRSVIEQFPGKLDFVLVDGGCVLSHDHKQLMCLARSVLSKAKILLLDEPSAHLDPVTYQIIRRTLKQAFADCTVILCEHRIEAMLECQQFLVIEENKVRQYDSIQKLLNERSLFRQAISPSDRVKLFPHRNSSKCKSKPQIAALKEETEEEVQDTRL
pEC50: −log10 of the molar value.
Measured endpoint: pEC50

(Q) # lookup: pEC50 of Cc1c(S(=O)(=O)c2ccc(OC(F)(F)F)cc2)sc(NC(=O)C(C)(C)O)c1C(N)=O [Compound 437]
(A) < 6.00

* * *

target: CFTR-G178R (Homo sapiens, UniProt P13569, G178R); experiment: YFP-halide influx assay for the CFTR-G178R
Sequence (P13569 whole entry G178R): as the sequence (P13569 whole entry G1349D) above, with G178R, D1349G counted along it
For each record, write down the corresponding EC50.
Please respond with the number in nM and leave the unit unwritten.

(Q) Under CFTR-G178R (Homo sapiens, UniProt P13569, G178R): EC50 value of CC(CO)C(=O)Nc1sc(S(=O)(=O)c2ccc(C(F)(F)F)cc2)cc1C(N)=O (stereo not shown) ?
(A) 74.6

(Q) Under CFTR-G178R (Homo sapiens, UniProt P13569, G178R): EC50 value of CC(O)C(=O)Nc1sc(S(=O)(=O)c2ccc(F)cc2Cl)cc1C(N)=O (stereo not shown) ?
(A) 1680

(Q) Under CFTR-G178R (Homo sapiens, UniProt P13569, G178R): EC50 value of "CC(C)(O)C(=O)Nc1sc(S(=O)(=O)c2cc(F)ccc2Cl)cc1C(N)=O" ?
(A) 27.2

(Q) Under CFTR-G178R (Homo sapiens, UniProt P13569, G178R): EC50 value of "CC(C)(O)C(=O)Nc1sc(S(=O)(=O)c2cc(Cl)ncc2C#N)cc1C(N)=O" ?
(A) 1110

(Q) Under CFTR-G178R (Homo sapiens, UniProt P13569, G178R): EC50 value of "Cc1ccc(C(F)(F)F)c(S(=O)(=O)c2cc(C(N)=O)c(NC(=O)C(C)(C)O)s2)n1" ?
(A) 44.7

(Q) Under CFTR-G178R (Homo sapiens, UniProt P13569, G178R): EC50 value of "CC(C)(O)C(=O)Nc1sc(S(=O)(=O)c2cc(F)c(F)cc2OC(F)F)cc1C(N)=O" ?
(A) 126

(Q) Under CFTR-G178R (Homo sapiens, UniProt P13569, G178R): EC50 value of "C[C@@H](CO)C(=O)Nc1sc(S(=O)(=O)c2ccc(OC(F)(F)F)cc2)cc1C(N)=O" ?
(A) 75.8

(Q) Under CFTR-G178R (Homo sapiens, UniProt P13569, G178R): EC50 value of "CC(C)(O)C(=O)Nc1sc(S(=O)(=O)c2ccc(C#N)cc2OC(F)(F)F)cc1C(N)=O" ?
(A) 56.7

(Q) Under CFTR-G178R (Homo sapiens, UniProt P13569, G178R): EC50 value of "COc1ccc(C(F)(F)F)c(S(=O)(=O)c2cc(C(N)=O)c(NC(=O)C(C)(C)O)s2)n1" ?
(A) 110

(Q) Under CFTR-G178R (Homo sapiens, UniProt P13569, G178R): EC50 value of "CC(C)(O)C(=O)Nc1sc(S(=O)(=O)c2ncc(C(F)(F)F)cc2F)cc1C(N)=O" ?
(A) 80.1

(Q) Under CFTR-G178R (Homo sapiens, UniProt P13569, G178R): EC50 value of "CC(C)(O)C(=O)Nc1sc(S(=O)(=O)c2ccc(OC(F)(F)F)cc2)cc1C(N)=O" ?
(A) 291

(Q) Under CFTR-G178R (Homo sapiens, UniProt P13569, G178R): EC50 value of CC(O)C(=O)Nc1sc(S(=O)(=O)c2ccc(F)cc2C(F)(F)F)cc1C(N)=O (stereo not shown) ?
(A) 1880

(Q) Under CFTR-G178R (Homo sapiens, UniProt P13569, G178R): EC50 value of "CC(C)(O)C(=O)Nc1sc(S(=O)(=O)c2cnc(C(F)(F)F)cn2)cc1C(N)=O" ?
(A) 417

(Q) Under CFTR-G178R (Homo sapiens, UniProt P13569, G178R): EC50 value of "CC(C)(O)C(=O)Nc1sc(S(=O)(=O)c2nc(Cl)ccc2C(F)(F)F)cc1C(N)=O" ?
(A) 178

(Q) Under CFTR-G178R (Homo sapiens, UniProt P13569, G178R): EC50 value of "CC(C)(O)C(=O)Nc1sc(S(=O)(=O)c2cc(C(F)(F)F)ncc2Cl)cc1C(N)=O" ?
(A) 103

(Q) Under CFTR-G178R (Homo sapiens, UniProt P13569, G178R): EC50 value of "CC(C)(O)C(=O)Nc1sc(S(=O)(=O)c2ncccc2C(F)(F)F)cc1C(N)=O" ?
(A) 136

* * *

molecular target: CFTR ΔF508 mutant (Homo sapiens, UniProt P13569, DEL508-508); construct: expressed in transfected cells; host or cells: CFBE41o- (adenoviral transduction); assay: YFP-halide influx assay for the CFTR-ΔF508 mutation (384 well, FDSS/μCell); type: cell-based; conditions: CFBE41o- cells, CFTR-ΔF508, 1×D-PBS, fluorescence after 36 seconds
pEC50: −log10 of the molar value.
Record MET whenever pEC50 is at 8 or higher; record NOT MET when lower.

(Q) Please check the record CC(CO)C(=O)Nc1sc(S(=O)(=O)c2cc(Cl)ccc2OC(F)(F)F)cc1C(N)=O (centres unmarked) [Compound 386] and state if its pEC50 is at or above 8.
(A) MET

(Q) Please check the record CC(CO)C(=O)Nc1sc(S(=O)(=O)c2cc(F)ccc2OC(F)(F)F)cc1C(N)=O (centres unmarked) [Compound 351] and state if its pEC50 is at or above 8.
(A) MET

(Q) Please check the record NC(=O)c1cc(S(=O)(=O)c2ccc(OC(F)(F)F)cc2)sc1NC(=O)C1CCCO1 (centres unmarked) [Compound 442] and state if its pEC50 is at or above 8.
(A) NOT MET

(Q) Please check the record C[C@H](O)C(=O)Nc1sc(S(=O)(=O)c2c(Cl)cc(F)cc2Cl)cc1C(N)=O [Compound 355] and state if its pEC50 is at or above 8.
(A) MET

* * *

target: CFTR ΔF508 mutant (Homo sapiens, UniProt P13569, DEL508-508); construct: expressed in transfected cells; host or cells: CFBE41o- (adenoviral transduction); test: YFP-halide influx assay for the CFTR-ΔF508 mutation, gluconate buffer; format: cell-based; settings: CFBE41o- cells, forskolin 10.67 μM
For each record, write down the corresponding EC50.
Please respond with the number in nM and leave the unit unwritten.

(Q) # lookup: EC50 of "Cc1ccccc1C(=O)Nc1sc(S(=O)(=O)N2CCOCC2)cc1C(N)=O"
(A) 291

(Q) # lookup: EC50 of "NC(=O)c1cc(S(=O)(=O)N2CCCCC2)sc1NC(=O)c1cnccn1"
(A) 290

(Q) # lookup: EC50 of "CC(C)(CO)C(=O)Nc1sc(S(=O)(=O)N2CCC(F)(F)CC2)cc1C(N)=O"
(A) 195

(Q) # lookup: EC50 of "N#Cc1cccc(C(=O)Nc2sc(S(=O)(=O)N3CCCCC3)cc2C(N)=O)c1"
(A) 568

(Q) # lookup: EC50 of "NC(=O)c1cc(S(=O)(=O)N2CCCCC2)sc1NC(=O)c1cccc(F)c1"
(A) 357

(Q) # lookup: EC50 of "NC(=O)c1cc(S(=O)(=O)c2cccc(F)c2)sc1NC(=O)c1cc[nH]n1"
(A) 29.2

(Q) # lookup: EC50 of "NC(=O)c1cc(S(=O)(=O)N2CCCCC2)sc1NC(=O)C1CC(F)(F)C1"
(A) 696

(Q) # lookup: EC50 of "NC(=O)c1cc(S(=O)(=O)N2CCOCC2)sc1NC(=O)c1cccc(O)c1"
(A) 263

(Q) # lookup: EC50 of "CCc1cc(C(=O)Nc2sc(S(=O)(=O)c3ccccc3)cc2C(N)=O)n[nH]1"
(A) 99.4

(Q) # lookup: EC50 of "NC(=O)c1cc(S(=O)(=O)N2C[C@@H]3C[C@H]2CO3)sc1NC(=O)c1ccccc1F"
(A) 365

(Q) # lookup: EC50 of "CCc1ccccc1S(=O)(=O)c1cc(C(N)=O)c(NC(=O)c2ccccc2F)s1"
(A) 74.9

(Q) # lookup: EC50 of "Cc1ccc(C(=O)Nc2sc(S(=O)(=O)c3ccccn3)cc2C(N)=O)s1"
(A) 378

(Q) # lookup: EC50 of "COc1cccc(C(=O)Nc2sc(S(=O)(=O)N3CCCCC3)cc2C(N)=O)c1"
(A) 472

(Q) # lookup: EC50 of "CN(Cc1ccccc1)S(=O)(=O)c1cc(C(N)=O)c(NC(=O)C(C)(C)C)s1"
(A) 162

(Q) # lookup: EC50 of "N#CC1(C(=O)Nc2sc(S(=O)(=O)N3CCCCC3)cc2C(N)=O)CC1"
(A) 3330

(Q) # lookup: EC50 of "NC(=O)c1cc(S(=O)(=O)N2CCCOCC2)sc1NC(=O)c1cc[nH]n1"
(A) 241
